Sourced from ChEMBL document CHEMBL2311318

Experiment: Cytotoxicity against human KPL4 cells expressing PI3Kalpha H1047R mutant assessed as growth inhibition after 96 hrs
Format: functional, cell-based
Conditions: KPL4, 96 h
Measure Name: pIC50
Answers are plain numbers, as −log10 of the molar value.

| Smi | Result Value |
| --- | --- |
| Nc1ncc(-c2nc(N3CCOCC3)nc3c2CCN3c2cccnc2)cn1 | 7.82 |

# input for lookup
Would you mind telling me what pIC50 value was observed for `Nc1ncc(-c2nc(N3CCOCC3)nc3c2CCN3c2ccncc2)cn1` ? 7.54

----------
Biological target: Phosphatidylinositol 4,5-bisphosphate 3-kinase catalytic subunit alpha isoform (Homo sapiens, UniProt P42336)
Sequence (P42336 whole entry, canonical isoform): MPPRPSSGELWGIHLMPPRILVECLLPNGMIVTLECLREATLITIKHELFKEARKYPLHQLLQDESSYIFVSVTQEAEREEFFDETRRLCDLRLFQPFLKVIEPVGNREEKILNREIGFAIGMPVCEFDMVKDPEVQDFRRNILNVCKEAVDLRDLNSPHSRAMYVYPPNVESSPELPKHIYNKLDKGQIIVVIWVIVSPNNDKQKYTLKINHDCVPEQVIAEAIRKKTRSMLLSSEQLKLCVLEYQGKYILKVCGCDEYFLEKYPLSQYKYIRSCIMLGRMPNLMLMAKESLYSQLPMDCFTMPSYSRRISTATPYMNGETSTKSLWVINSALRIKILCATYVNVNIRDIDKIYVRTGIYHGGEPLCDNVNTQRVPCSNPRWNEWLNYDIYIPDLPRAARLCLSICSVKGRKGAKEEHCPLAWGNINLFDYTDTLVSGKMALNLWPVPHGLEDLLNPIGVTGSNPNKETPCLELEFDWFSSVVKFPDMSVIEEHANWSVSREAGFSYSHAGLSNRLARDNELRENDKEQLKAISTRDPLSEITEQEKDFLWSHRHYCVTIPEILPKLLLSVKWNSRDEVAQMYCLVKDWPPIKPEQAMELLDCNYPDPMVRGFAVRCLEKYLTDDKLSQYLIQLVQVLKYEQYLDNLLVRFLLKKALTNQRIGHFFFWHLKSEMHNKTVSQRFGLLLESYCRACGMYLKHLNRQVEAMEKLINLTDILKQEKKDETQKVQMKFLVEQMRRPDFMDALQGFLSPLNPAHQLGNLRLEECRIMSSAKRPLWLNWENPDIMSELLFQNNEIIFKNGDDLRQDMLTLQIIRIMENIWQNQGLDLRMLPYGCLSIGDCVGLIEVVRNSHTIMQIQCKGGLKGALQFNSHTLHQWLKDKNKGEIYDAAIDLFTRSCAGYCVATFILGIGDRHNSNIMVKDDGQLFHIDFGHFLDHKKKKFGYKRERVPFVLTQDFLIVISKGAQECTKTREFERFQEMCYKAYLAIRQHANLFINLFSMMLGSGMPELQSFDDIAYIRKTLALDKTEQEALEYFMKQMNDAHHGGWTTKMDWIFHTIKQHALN
Assay: Inhibition of PI3Kalpha (unknown origin) using phosphatidylinositol 4,5-bisphosphate as substrate
Measure Name: IC50 (nM)
Numbers only, in nM.

| Smi | Unit Symbol | IC50 |
| --- | --- | --- |
| Nc1ncc(-c2nc(N3CCOCC3)nc3c2CCN3c2ccncc2)cn1 | nM | 26 |

Would you mind telling me what IC50 value was observed for `Oc1cccc(-c2nc(N3CCOCC3)nc3c2CCN3c2ccnc(O)c2)c1` ? 200

----------
Assay: AUC in BALB/c nu mouse at 10 mg/kg, iv
Format: ADME, organism-based
Set-up: dose 10 mg/kg, route intravenous
Conditions: plasma
Measure Name: AUC (ng·h/mL)
Give bare numbers, in ng·h/mL.

Would you mind telling me what AUC value was observed for `Nc1ncc(-c2nc(N3CCOCC3)nc3c2CCN3c2cccnc2)cn1` ? 4690

----------
Assay: Cmax in BALB/c nu mouse at 100 mg/kg, po
Type: ADME, organism-based
Design: dose 100 mg/kg, route oral
Settings: in vivo
Measure Name: Cmax (ng/mL)
Give bare numbers, in ng/mL.

Would you mind telling me what Cmax value was observed for `Nc1ncc(-c2nc(N3CCOCC3)nc3c2CCN3c2cccnc2)cn1` ? 4190

----------
Assay: AUC in BALB/c nu mouse at 100 mg/kg, po
Assay type: ADME, organism-based
Design: dose 100 mg/kg, route oral
Conditions: plasma
Measure Name: AUC (ng·h/mL)
Give bare numbers, in ng·h/mL.

Would you mind telling me what AUC value was observed for `Nc1ncc(-c2nc(N3CCOCC3)nc3c2CCN3c2cccnc2)cn1` ? 19400

----------
Experiment: Half life in BALB/c nu mouse at 100 mg/kg, po
Assay type: ADME, organism-based
Set-up: dose 100 mg/kg, route oral
Conditions: in vivo
Measure Name: half-life (h)
Answers are plain numbers, in h.

Would you mind telling me what half-life value was observed for `Nc1ncc(-c2nc(N3CCOCC3)nc3c2CCN3c2cccnc2)cn1` ? 6.58

----------
Assay: Half life in human liver microsomes at 5 uM in presence of UDPGA
Type: ADME, Microsome
Measure Name: half-life at 5 µM

Give half-life at 5 µM for each listed item.
1. Nc1ncc(-c2nc(N3CCOCC3)nc3c2CCN3c2ccncc2)cn1
2. Nc1ncc(-c2nc(N3CCOCC3)nc3c2CCN3c2cccnc2)cn1

1. > 1 h
2. > 1 h

----------
Assay: Half life in BALB/c nu mouse at 10 mg/kg, iv
Format: ADME, organism-based
Design: dose 10 mg/kg, route intravenous
Conditions: in vivo
Measure Name: half-life (h)
One number for each entry, in h.

Would you mind telling me what half-life value was observed for `Nc1ncc(-c2nc(N3CCOCC3)nc3c2CCN3c2cccnc2)cn1` ? 10.3

----------
Target: Phosphatidylinositol 4,5-bisphosphate 3-kinase catalytic subunit alpha isoform (Homo sapiens)
Test: Inhibition of PI3Kalpha (unknown origin) using phosphatidylinositol 4,5-bisphosphate as substrate
Measure Name: IC50 (nM)
Give bare numbers, in nM.

Reference set (4 entries):
| Smi | IC50 / nM |
| --- | --- |
| COc1cccc(-c2nc(N3CCOCC3)nc3c2CCN3c2ccncc2)c1 | 410 |
| c1cc(N2CCc3c(-c4cncnc4)nc(N4CCOCC4)nc32)ccn1 | 440 |
| Oc1cccc(-c2nc(N3CCOCC3)nc3c2CCN3c2ccccc2)c1 | 1220 |
| Cc1cc(N2CCc3c(-c4cccc(O)c4)nc(N4CCOCC4)nc32)ccn1 | 170 |

Would you mind telling me what IC50 value was observed for `NC(=O)c1cccc(-c2nc(N3CCOCC3)nc3c2CCN3c2ccncc2)c1` ? 19000

----------
Assay: Half life in mouse liver microsomes at 5 uM in presence of UDPGA
Assay type: ADME, Microsome
Would you kindly list half-life at 5 µM for each of these compounds?

| Smi | half-life at 5 µM |
| --- | --- |
| Oc1cccc(-c2nc(N3CCOCC3)nc3c2CCN3c2ccncc2)c1 | 6.1 min |
| Nc1ncc(-c2nc(N3CCOCC3)nc3c2CCN3c2ccncc2)cn1 | > 60 min |

# input for lookup
Would you mind telling me what half-life at 5 µM value was observed for `Nc1ncc(-c2nc(N3CCOCC3)nc3c2CCN3c2cccnc2)cn1` ? > 60 min

----------
Target: Phosphatidylinositol 4,5-bisphosphate 3-kinase catalytic subunit alpha isoform (Homo sapiens)
Test: Inhibition of PI3Kalpha (unknown origin) using phosphatidylinositol 4,5-bisphosphate as substrate
Would you kindly list pIC50 for each of these molecules?
Numbers only, as −log10 of the molar value.

| Smi | pIC50 |
| --- | --- |
| Oc1cccc(-c2nc(N3CCOCC3)nc3c2CCN3c2nccs2)c1 | 7.31 |
| Nc1cccc(-c2nc(N3CCOCC3)nc3c2CCN3c2ccncc2)c1 | 5.43 |
| c1cncc(-c2nc(N3CCOCC3)nc3c2CCN3c2ccncc2)c1 | 5.77 |
| CNC(=O)c1cccc(-c2nc(N3CCOCC3)nc3c2CCN3c2ccncc2)c1 | 5.62 |
| c1cc(-c2nc(N3CCOCC3)nc3c2CCN3c2ccncc2)ccn1 | 4.65 |

Would you mind telling me what pIC50 value was observed for `Cn1ccc(N2CCc3c(-c4cccc(O)c4)nc(N4CCOCC4)nc32)n1` ? 6.64

----------
Target: Phosphatidylinositol 4,5-bisphosphate 3-kinase catalytic subunit alpha isoform (Homo sapiens, UniProt P42336)
Experiment: Inhibition of PI3Kalpha (unknown origin) using phosphatidylinositol 4,5-bisphosphate as substrate
pIC50: −log10 of the molar value.
Measure Name: pIC50

Reference set (3 entries):
| Smi | pIC50 |
| --- | --- |
| c1cc(-c2nc(N3CCOCC3)nc3c2CCN3c2ccncc2)c2cn[nH]c2c1 | < 4.30 |
| Oc1cccc(-c2nc(N3CCOCC3)nc3c2CCN3c2ccc3ncccc3c2)c1 | < 4.30 |
| c1cc(-c2nc(N3CCOCC3)nc3c2CCN3c2ccncc2)c2[nH]ncc2c1 | < 4.30 |

Would you mind telling me what pIC50 value was observed for `Cc1ccc(-c2nc(N3CCOCC3)nc3c2CCN3c2ccncc2)cc1O` ? < 4.30
